// values below are reported IC50
Molecular target: human NaV subtype, like NaV 1.7 (Homo sapiens)
Assay: E-VIPR optical membrane potential assay with electrical stimulation
Settings: active against one or more sodium channels; Table 3 does not name the assay or NaV subtype; read-out: Binned Activity Data (IC50)

Solved cases (5 shown):
Exercise: Which IC50 value belongs to CC(C)CNc1ncccc1C(=O)N1CCC2(CC1)c1ccc(C(F)(F)F)n1CCN2C [Compound 44] ?
Key: 2 to 5 µM

Exercise: Now consider CN1CCn2c(Cl)ccc2C12CCN(C(=O)c1ccc(C3(O)CCCC3)cc1)CC2 [Compound 301] and answer again.
Key: > 5 µM

Exercise: Now consider CC(C)CCOc1ccc(C(=O)N2CCC3(CC2)c2ccc(C(=O)C(F)(F)F)n2C(C)CN3C)nc1 (stereo not drawn) [Compound 444] and answer again.
Key: ≤ 2 µM

Exercise: Now consider CC(C)Nc1ccnc2c(C(=O)N3CCC4(CC3)c3ccc(C(F)(F)F)n3CCN4C)cnn12 [Compound 162] and answer again.
Key: ≤ 2 µM

Exercise: Now consider CC(=O)c1ccc2n1CCN(C)C21CCN(C(=O)c2ccc(OCC(F)(F)F)cc2)CC1 [Compound 520] and answer again.
Key: ≤ 2 µM

We now examine a further compound.
Exercise: Which IC50 value belongs to COc1cc(C(=O)N2CCC3(CC2)c2c(F)cc(C(F)(F)F)n2CCN3C)ccc1OC(C)(C)C [Compound 483] ?
Key: ≤ 2 µM

---

Target: human NaV subtype, like NaV 1.7 (Homo sapiens, UniProt Q15858)
Sequence (Q15858 whole entry): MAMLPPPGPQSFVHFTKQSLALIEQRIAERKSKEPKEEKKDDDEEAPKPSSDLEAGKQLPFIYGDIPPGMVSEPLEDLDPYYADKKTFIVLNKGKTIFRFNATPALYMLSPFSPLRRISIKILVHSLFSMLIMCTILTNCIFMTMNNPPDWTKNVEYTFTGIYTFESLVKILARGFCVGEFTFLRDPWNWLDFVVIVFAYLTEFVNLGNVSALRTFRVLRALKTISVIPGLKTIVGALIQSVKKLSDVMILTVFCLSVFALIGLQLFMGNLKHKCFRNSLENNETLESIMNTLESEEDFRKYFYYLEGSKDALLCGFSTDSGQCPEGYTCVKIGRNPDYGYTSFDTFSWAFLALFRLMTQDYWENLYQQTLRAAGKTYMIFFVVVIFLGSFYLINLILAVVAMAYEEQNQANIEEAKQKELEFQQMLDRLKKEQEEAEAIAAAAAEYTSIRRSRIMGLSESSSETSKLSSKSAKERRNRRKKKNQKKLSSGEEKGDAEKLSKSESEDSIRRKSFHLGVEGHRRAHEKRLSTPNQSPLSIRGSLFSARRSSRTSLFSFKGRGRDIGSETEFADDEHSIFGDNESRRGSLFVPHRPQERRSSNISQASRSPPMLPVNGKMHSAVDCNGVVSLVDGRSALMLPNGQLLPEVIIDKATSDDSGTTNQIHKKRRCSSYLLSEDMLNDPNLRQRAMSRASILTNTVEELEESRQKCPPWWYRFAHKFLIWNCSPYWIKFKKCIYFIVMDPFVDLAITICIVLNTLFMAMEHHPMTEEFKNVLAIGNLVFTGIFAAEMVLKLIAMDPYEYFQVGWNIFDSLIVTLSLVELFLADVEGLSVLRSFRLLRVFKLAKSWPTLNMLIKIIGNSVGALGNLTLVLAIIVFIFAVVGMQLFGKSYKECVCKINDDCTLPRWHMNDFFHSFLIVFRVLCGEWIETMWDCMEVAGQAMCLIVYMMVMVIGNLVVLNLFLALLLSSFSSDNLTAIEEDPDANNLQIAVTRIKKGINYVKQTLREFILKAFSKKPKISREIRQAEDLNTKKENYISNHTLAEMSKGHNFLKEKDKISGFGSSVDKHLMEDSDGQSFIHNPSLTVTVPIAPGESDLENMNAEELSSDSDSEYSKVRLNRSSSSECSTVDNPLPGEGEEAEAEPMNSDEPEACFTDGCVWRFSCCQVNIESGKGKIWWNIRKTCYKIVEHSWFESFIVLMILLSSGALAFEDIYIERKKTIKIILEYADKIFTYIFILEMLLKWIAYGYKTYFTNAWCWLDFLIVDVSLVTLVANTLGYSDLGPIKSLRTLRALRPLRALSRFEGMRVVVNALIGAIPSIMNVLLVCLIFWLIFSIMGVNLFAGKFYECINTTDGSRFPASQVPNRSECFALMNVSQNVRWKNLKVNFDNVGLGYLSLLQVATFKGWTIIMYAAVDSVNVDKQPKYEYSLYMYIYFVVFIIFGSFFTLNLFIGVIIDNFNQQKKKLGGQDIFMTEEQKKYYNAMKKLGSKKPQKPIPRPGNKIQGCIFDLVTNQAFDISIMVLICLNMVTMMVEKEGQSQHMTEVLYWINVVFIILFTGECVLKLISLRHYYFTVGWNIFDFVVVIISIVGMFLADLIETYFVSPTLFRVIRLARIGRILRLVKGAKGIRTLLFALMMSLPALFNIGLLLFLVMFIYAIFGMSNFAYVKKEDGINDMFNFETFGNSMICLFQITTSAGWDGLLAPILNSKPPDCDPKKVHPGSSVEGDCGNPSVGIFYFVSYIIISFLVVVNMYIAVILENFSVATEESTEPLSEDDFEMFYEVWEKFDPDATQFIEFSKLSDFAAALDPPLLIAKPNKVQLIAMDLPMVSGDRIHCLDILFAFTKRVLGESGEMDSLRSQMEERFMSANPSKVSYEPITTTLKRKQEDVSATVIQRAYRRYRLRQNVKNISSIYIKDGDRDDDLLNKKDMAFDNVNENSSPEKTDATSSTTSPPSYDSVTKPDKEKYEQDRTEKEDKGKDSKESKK
Test: E-VIPR optical membrane potential assay with electrical stimulation
Conditions: active against one or more sodium channels; Table 3 does not name the assay or NaV subtype; read-out: Binned Activity Data (IC50)
// values below are reported IC50

Exercise: Which IC50 value belongs to COc1cc(C(=O)N2CCC3(CC2)NCC(C)(C)n2c(C(F)(F)F)ccc23)ccc1OC(C)C ?
Key: ≤ 2000 nM

Exercise: Now consider Cc1cccc(C(=O)N2CCC3(CC2)c2ccc(C(F)(F)F)n2CCN3C)c1 and answer again.
Key: > 5000 nM

Exercise: Now consider COc1ccc(C(=O)N2CCC3(CC2)c2ccc(C(=O)C(F)(F)F)n2C[C@H](C)N3C)cc1Cl and answer again.
Key: ≤ 2000 nM

Exercise: Now consider CN1CCn2c(C(F)(F)F)ccc2C12CCN(C(=O)c1cc3occc3n1C)CC2 and answer again.
Key: ≤ 2000 nM

Exercise: Now consider COCCOc1ccc(C(=O)N2CCC3(CC2)c2c(F)cc(C(F)(F)F)n2CCN3C)cc1 and answer again.
Key: ≤ 2000 nM

More entries:
Exercise: Which IC50 value belongs to COc1ccc(C(=O)N2CCC3(CC2)c2ccc(C(=O)C(F)(F)F)n2C[C@@H](C)N3C)cc1Cl ?
Key: > 5000 nM

Exercise: Now consider Cc1cc(C(=O)N2CCC3(CC2)c2ccc(C(=O)C(C)(C)C)n2CCN3C)ccc1OC(C)C and answer again.
Key: ≤ 2000 nM

---

// values below are reported pIC50
Target: human NaV subtype, like NaV 1.7 (Homo sapiens, UniProt Q15858)
Assay: E-VIPR optical membrane potential assay with electrical stimulation
Format: cell-based
Conditions: active against one or more sodium channels; Table 3 does not name the assay or NaV subtype; read-out: Binned Activity Data (IC50)
pIC50: −log10 of the molar value.

Solved cases (8 shown):
Exercise: Which pIC50 value belongs to COc1cc(C(=O)N2CCC3(CC2)c2ccc(C(C)=O)n2CCN3C)ccc1COCC(F)(F)F [Compound 470] ?
Key: ≥ 5.70

Exercise: Now consider CN1CCn2c(C(=O)C(F)(F)F)ccc2C12CCN(C(=O)c1ccc(COCCC(F)(F)F)cc1)CC2 [Compound 237] and answer again.
Key: ≥ 5.70

Exercise: Now consider CCc1ccc(C(=O)N2CCC3(CC2)c2ccc(C(=O)C(F)(F)F)n2CCN3C)cc1 [Compound 26] and answer again.
Key: 5.30 to 5.70

Exercise: Now consider COc1cc(C(=O)N2CCC3(NCCn4c(C(F)(F)F)ccc43)C(C)C2)ccc1OC(C)C (centres unmarked) [Compound 506] and answer again.
Key: 5.30 to 5.70

Exercise: Now consider Cc1ccc(C(=O)N2CCC3(CC2)c2ccc(C(=O)C(F)(F)F)n2CCN3C)cc1O [Compound 597] and answer again.
Key: < 5.30

Exercise: Now consider CC(C)Oc1ccc(C(=O)N2CCC3(CC2)c2ccc(C(=O)C4(C)CC4)n2CCN3C)c(F)c1 [Compound 445] and answer again.
Key: ≥ 5.70

Exercise: Now consider COc1cc(C(=O)N2CCC3(CC2)c2ccc(C(F)(F)F)n2CCN3CC2CC2)ccc1OC(C)C [Compound 574] and answer again.
Key: ≥ 5.70

Exercise: Now consider Cc1cc(S(=O)(=O)C(C)C)ccc1C(=O)N1CCC2(CC1)c1ccc(C(=O)C(C)(C)C)n1CCN2C [Compound 399] and answer again.
Key: 5.30 to 5.70

More entries:
Exercise: Which pIC50 value belongs to COc1ccc(C(=O)N2CCC3(CC2)c2ccc(Cl)n2CCN3C)cc1C(F)(F)F [Compound 624] ?
Key: 5.30 to 5.70

Exercise: Now consider COc1cc(C(=O)N2CCC3(CC2)c2ccc(C(=O)C(F)(F)F)n2CCN3C)ccc1COCCC(F)(F)F [Compound 288] and answer again.
Key: ≥ 5.70

Exercise: Now consider COc1cc(C(=O)N2CCC3(CC2)c2ccc(C(F)(F)F)n2CCN3CC(F)F)ccc1OC(C)C [Compound 706] and answer again.
Key: ≥ 5.70
